B1: Azoarcus group I ribozyme (parent)
chain: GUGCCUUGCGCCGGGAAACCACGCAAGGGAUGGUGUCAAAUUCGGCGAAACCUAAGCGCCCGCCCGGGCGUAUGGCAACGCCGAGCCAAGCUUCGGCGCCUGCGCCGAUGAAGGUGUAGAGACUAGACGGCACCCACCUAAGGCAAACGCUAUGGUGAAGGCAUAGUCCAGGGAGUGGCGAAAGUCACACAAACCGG

Variants of: B1
Test: reverse-splicing fitness (ratio to wild type); higher = more active; in vitro selection; Mg2+ level not given
# binarize reverse-splicing fitness: threshold 0.007 inclusive, high side t, low side f

Sequence Change: C82G A111C A120U A145C C169U U176G
Group Label: f
--
Sequence Change: C82G C150A C169U
Group Label: t
--
Sequence Change: C82A A111U A145C C150U C169G U176A
Group Label: t
--
Sequence Change: C82U A111C A120U A145G C150U C169A U176G
Group Label: f
--
Sequence Change: C82A A111U A145U C150U U176C
Group Label: t

## Input Check if reverse-splicing fitness >= 0.007 (inclusive). Item: C82U A111G A120G C150U U176C
## Output t

## Input Check if reverse-splicing fitness >= 0.007 (inclusive). Item: A111C A120C A145C U176A
## Output t
